# testTarget: Enoyl-[acyl-carrier-protein] reductase [NADH] FabI (Escherichia coli K-12)
# Sequence (P0AEK4 whole entry): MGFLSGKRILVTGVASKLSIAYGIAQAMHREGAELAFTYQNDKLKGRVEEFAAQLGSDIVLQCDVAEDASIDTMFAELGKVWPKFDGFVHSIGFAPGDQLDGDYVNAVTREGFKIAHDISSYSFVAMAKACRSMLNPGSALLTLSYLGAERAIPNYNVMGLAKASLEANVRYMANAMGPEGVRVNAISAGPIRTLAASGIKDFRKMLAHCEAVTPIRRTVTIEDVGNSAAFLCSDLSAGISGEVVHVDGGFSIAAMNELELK
measuredEndpoint: IC50 (µM)
Kindly answer with a numeric value in µM, unit omitted.

Enoyl-[acyl-carrier-protein] reductase [NADH] FabI (Escherichia coli K-12) IC50 of COc1cc(C)c(C(=O)Oc2cc(C)c(C(=O)O)c(O)c2)c(O)c1 is 90

// IC50 (Enoyl-[acyl-carrier-protein] reductase [NADH] FabI (Escherichia coli K-12)) for COC(=O)/C(=C1/OC(=O)C(c2ccccc2)=C1O)c1ccccc1 = 84

For the compound CC(=O)C1=C(O)C=C2Oc3c(C(C)=O)c(O)c(C)c(O)c3[C@@]2(C)C1=O [(+)-USNIC ACID] , the measured IC50 on Enoyl-[acyl-carrier-protein] reductase [NADH] FabI (Escherichia coli K-12) was 47

Each recorded value in this set is attributed to ChEMBL document CHEMBL2384958.
